Tested on: UGT2B7
EXPERIMENT: ZDV glucuronidation kinetics in RLM
CONDITION SET: rat, rat liver microsomes (pooled), pH 7.4, CLint, without 1% BSA, Vmax/Km
PARAMETER MEASURED: microsomal CLint (µL/min/mg)

INSERT INTO results (compound, parameter_measured, quantity_unit, number) VALUES
  ('Cc1cn([C@H]2C[C@H](N=[N+]=[N-])[C@@H](CO)O2)c(=O)[nH]c1=O [zidovudine, 3′-Azido-3′-deoxythymidine]', 'microsomal CLint', 'µL/min/mg', 0.09);

----------
Tested on: UGT2B7
EXPERIMENT: Inhibition of ZDV glucuronidation in rat liver microsomes (RLM)
CONDITION SET: rat, pH 7.4, IC50 for inhibition of ZDV glucuronidation in RLM, rat liver microsomes, ZDV as probe substrate, 1% (w/v) BSA
PARAMETER MEASURED: IC50 at 90 min (µM)

INSERT INTO measurements (molecule, number) VALUES
  ('CCC1CN2CCc3c([nH]c4cccc(OC)c34)C2CC1/C(=C\OC)C(=O)OC (stereo not shown)', 51.2);

----------
Tested on: UGT2B7
EXPERIMENT: Inhibition of ZDV glucuronidation in rat liver microsomes (RLM)
CONDITION SET: rat, rat liver microsomes (pooled), pH 7.4, probe zidovudine (ZDV), at or below its Km, concentration inhibiting ZDV glucuronidation in RLM higher than 50% (screening), screening at 1 µM, 10 µM and 100 µM
PARAMETER MEASURED: IC50 at 90 min

INSERT INTO results (compound_structure_string, result) VALUES
  ('C/C1=C\CC(C)(C)/C=C/C(=O)/C(C)=C/CC1', '< 100 µM');

----------
Tested on: UGT2B7
EXPERIMENT: Inhibition of ZDV glucuronidation in rat liver microsomes (RLM)
CONDITION SET: rat, rat liver microsomes (pooled), pH 7.4, probe zidovudine (ZDV), at or below its Km, IC50 for inhibition of ZDV glucuronidation in RLM, rat liver microsomes, ZDV as probe substrate, 1% (w/v) BSA
PARAMETER MEASURED: IC50 at 90 min (µM)

INSERT INTO results (compound_structure_string, parameter_measured, quantity_unit, number) VALUES
  ('C/C1=C\CC(C)(C)/C=C/C(=O)/C(C)=C/CC1', 'IC50 at 90 min', 'µM', 8.14);

----------
EXPERIMENTAL TARGET: UGT2B7 (Homo sapiens)
EXPERIMENT: in vitro
CONDITION SET: pH 7.4, Km, HLM, without 1% BSA, mean ± SD
PARAMETER MEASURED: Km at 120 min (mM)

INSERT INTO measurements (compound_structure_string, parameter_measured, number) VALUES
  ('Cc1cn([C@H]2C[C@H](N=[N+]=[N-])[C@@H](CO)O2)c(=O)[nH]c1=O', 'Km at 120 min', 3.4);

----------
# IC50 annotations
EXPERIMENTAL TARGET: UGT2B7 (Homo sapiens, UniProt P16662)
Sequence (P16662 24-529): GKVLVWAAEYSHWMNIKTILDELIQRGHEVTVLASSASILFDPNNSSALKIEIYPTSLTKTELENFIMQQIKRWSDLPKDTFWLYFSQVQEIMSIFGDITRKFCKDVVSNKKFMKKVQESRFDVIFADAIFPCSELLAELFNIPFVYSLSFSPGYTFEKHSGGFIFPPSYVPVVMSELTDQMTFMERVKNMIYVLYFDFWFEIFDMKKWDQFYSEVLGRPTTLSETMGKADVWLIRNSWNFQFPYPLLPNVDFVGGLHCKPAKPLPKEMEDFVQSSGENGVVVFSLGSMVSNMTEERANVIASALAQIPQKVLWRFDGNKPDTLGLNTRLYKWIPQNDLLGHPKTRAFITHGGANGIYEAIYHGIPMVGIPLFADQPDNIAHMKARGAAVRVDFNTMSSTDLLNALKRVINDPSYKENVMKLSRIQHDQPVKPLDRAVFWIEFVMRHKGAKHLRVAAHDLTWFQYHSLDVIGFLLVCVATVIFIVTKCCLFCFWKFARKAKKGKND
EXPERIMENT: Inhibition of ZDV glucuronidation in human liver microsomes (HLM)
CONDITION SET: IC50 for inhibition of ZDV glucuronidation in HLM, human liver microsomes, ZDV as UGT2B7 probe substrate, 1% (w/v) BSA
PARAMETER MEASURED: IC50 (µM)

INSERT INTO assay_data (compound, parameter_measured, number) VALUES
  ('C=C1CC[C@@H]2[C@](C)(CO)[C@H](O)CC[C@@]2(C)[C@@H]1C/C=C1/C(=O)OC[C@H]1O [Andrographolide, andrographolide]', 'IC50', 6.18),
  ('CCC1CN2CCc3c([nH]c4cccc(OC)c34)C2CC1/C(=C\OC)C(=O)OC (stereo not drawn)', 'IC50', 8.11),
  ('C/C1=C\CC(C)(C)/C=C/C(=O)/C(C)=C/CC1', 'IC50', 4.57);
